Where these numbers come from: ChEMBL document CHEMBL5625260

Each entry below lists one item and its recorded inhibition value.
# ASSAY SYSTEM: UniProt Q8IXJ6
# Sequence (Q8IXJ6 whole entry): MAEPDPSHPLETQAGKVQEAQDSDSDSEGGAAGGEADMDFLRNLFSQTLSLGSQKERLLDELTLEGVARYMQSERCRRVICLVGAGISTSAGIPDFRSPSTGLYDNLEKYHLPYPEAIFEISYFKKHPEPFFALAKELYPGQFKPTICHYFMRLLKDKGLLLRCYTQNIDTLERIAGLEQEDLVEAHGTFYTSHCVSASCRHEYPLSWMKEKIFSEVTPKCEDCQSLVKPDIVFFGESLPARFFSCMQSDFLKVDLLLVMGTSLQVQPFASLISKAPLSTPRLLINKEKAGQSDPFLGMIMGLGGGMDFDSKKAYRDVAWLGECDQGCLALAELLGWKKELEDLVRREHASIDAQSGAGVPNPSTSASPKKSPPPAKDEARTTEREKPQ
# PROTOCOL DESCRIPTION: Inhibition of SIRT2 (unknown origin) at 50 uM relative to control
Record the value in %, omitting the unit from your answer.

What does the record list as inhibition for COc1ccccc1N1CCN(Cc2ccc3oc4c(Cl)cccc4c(=O)c3c2)CC1 ?
49.5

====

# ASSAY SYSTEM: NAD-dependent protein deacetylase sirtuin-1 (Homo sapiens, UniProt Q96EB6)
# Sequence (Q96EB6 whole entry): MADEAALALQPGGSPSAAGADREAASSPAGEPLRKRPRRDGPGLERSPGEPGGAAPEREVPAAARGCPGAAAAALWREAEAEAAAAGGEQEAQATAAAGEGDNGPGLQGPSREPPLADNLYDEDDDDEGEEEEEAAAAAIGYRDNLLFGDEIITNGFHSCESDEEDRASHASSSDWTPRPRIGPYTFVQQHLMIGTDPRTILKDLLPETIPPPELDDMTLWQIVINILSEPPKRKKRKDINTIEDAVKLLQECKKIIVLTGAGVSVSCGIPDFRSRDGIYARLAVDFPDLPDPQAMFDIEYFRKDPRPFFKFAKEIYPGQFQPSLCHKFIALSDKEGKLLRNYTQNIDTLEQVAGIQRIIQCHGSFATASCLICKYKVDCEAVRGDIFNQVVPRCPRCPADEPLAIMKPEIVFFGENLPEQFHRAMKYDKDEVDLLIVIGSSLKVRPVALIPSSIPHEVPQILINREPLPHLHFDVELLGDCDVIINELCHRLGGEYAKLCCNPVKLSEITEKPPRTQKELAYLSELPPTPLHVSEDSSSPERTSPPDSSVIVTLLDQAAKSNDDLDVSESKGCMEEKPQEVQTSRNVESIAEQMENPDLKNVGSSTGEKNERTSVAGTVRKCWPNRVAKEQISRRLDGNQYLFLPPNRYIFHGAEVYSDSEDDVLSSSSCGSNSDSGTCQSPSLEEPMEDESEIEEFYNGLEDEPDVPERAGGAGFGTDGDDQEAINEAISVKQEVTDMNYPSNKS
# PROTOCOL DESCRIPTION: Activation of N-terminal His-tagged recombinant human SIRT1 (193 to end residues) expressed in baculovirus infected Sf9 insect cells incubated for 15 to 45 mins by luminescence based assay
PROPERTY: pEC50
Bear in mind: pEC50 is minus log10 of a mol/L concentration; give just that figure.

Entry CC(C)=CCc1c(O)c(CC=C(C)C)c2oc3c(O)ccc(O)c3c(=O)c2c1O [GARTANIN] , system NAD-dependent protein deacetylase sirtuin-1 (Homo sapiens, UniProt Q96EB6): what pEC50 was measured?
5.75
